Experiment: NCI Yeast Anticancer Drug Screen. Data for the rad14 strain (AID 159);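 also: 0% = growth of vehicle-treated control cultures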
Settings: S. cerevisiae rad14 strain growth inhibition; at 33.0 µM; stronger effect = higher value
Compounds without any hit were thinned out: in the full panel of roughly 79,000, 15% have a hit.
Measured property: growth inhibition (%)
Answers are plain numbers, in %.

[[record]]
compound = "C/C(CCl)=N/NC1=NC(c2ccccc2Cl)P(=O)(NCCCNP2(=O)SC(N/N=C(/C)CCl)=NC2c2ccccc2Cl)S1 (stereo not given)"
measured_property = "growth inhibition"
display_unit = "%"
number = 2

[[record]]
compound = "COc1cc([C@@H]2c3cc4c(cc3C[C@@H]3COC(=O)C32)OCO4)cc(OC)c1O (stereo not given in full)"
measured_property = "growth inhibition"
display_unit = "%"
number = 75

[[record]]
compound = "CC1=C(N2CC2)C(=O)c2ccccc2C1=O"
measured_property = "growth inhibition"
display_unit = "%"
number = 32


Report growth inhibition for each item below.
1. C/C(=N\NC(N)=O)C(CN1CCOCC1)C(c1ccccc1)c1c(O)c2ccccc2oc1=O (stereo not given)
2. CCOC(=O)C1=C(C(=O)OCC)C2(c3ccccc3)N(O1)c1ccccc1C2(C)C (stereo not given)
3. CC[C@@]1(O)C(=O)OCc2c1cc1n(c2=O)Cc2cc3c(NC(=O)CN)cccc3nc2-1
4. COc1cc2ccccc2c2cc([N+](=O)[O-])oc12
5. Cc1cccc(NC(=O)CBr)c1
6. CN(C)CCSC1=Nc2ccc(Cl)cc2C(c2ccccc2Cl)=NC1
7. CNCC(O)c1ccc(O)c(O)c1.[Pt].c1ccc([PH+](c2ccccc2)c2ccccc2)cc1.c1ccc([PH+](c2ccccc2)c2ccccc2)cc1
8. O=P(CCCCP(=O)(c1ccccc1)c1ccccc1)(c1ccccc1)c1ccccc1.[Cl][Sn]([Cl])([c]1ccccc1)[c]1ccccc1

Output:
1. 2
2. -8
3. -4
4. 94
5. 99
6. 45
7. 98
8. 94

Report growth inhibition for each item below.
1. O=S(=O)(O)/C(=C\c1ccccc1)c1ccccc1 (tested in a mixture with another compound)
2. O=P(Oc1ccc(Cl)cc1)(Oc1ccc(Cl)cc1)N1CC1

Output:
1. -7
2. 19

Report growth inhibition for each item below.
1. O=c1oc2ccccc2c(O)c1C(c1ccc2ccccc2c1)c1c(O)c2ccccc2oc1=O
2. CCC1(O)C(=O)OCc2c1cc1n(c2=O)Cc2cc3ccccc3nc2-1 (stereo not given)
3. Oc1cccc2cccnc12
4. Cc1c2ccccc2cc2ccccc12
5. CC(C)CC(NC(=O)C(N)C(C)C)C(=O)NC(CCCCN)C(=O)Nc1ccc(N(CCCl)CCCl)cc1 (stereo not given)

Output:
1. 66
2. 12
3. 98
4. 99
5. -2

Report growth inhibition for each item below.
1. O=C1C=CC(=O)C1(Br)Br
2. COC(=O)c1c(C)ccc2c(O)c3c(cc12)C(=O)c1c2c(cc(O)c1C3=O)C1(C)OC(C)(O2)C(O)C(N(C)C)C1O (stereo not given)

Output:
1: 88; 2: 95
